Study system: CYP2C9 (Homo sapiens, UniProt P11712)
Sequence (P11712 whole entry): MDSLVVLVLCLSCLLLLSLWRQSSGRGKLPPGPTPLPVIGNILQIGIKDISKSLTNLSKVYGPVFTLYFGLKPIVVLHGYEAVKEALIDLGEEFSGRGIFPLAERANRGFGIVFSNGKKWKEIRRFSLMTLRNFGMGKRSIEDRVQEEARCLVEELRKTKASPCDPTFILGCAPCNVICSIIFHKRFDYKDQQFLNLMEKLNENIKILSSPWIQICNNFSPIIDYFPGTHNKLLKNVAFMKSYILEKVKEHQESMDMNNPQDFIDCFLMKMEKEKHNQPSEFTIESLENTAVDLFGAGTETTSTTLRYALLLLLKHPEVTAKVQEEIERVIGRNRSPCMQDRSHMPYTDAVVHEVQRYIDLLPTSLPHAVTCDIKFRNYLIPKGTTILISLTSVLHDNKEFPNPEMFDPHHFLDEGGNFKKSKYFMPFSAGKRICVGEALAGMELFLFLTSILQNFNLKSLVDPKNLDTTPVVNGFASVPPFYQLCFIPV
Assay explanation: Reversible CYP inhibition in human liver microsomes (HLM)
Format: in vitro ADME
Parameters: from tissue; host or cells: human liver microsomes
Quantity measured: IC50

> print(dat)
                              smiles.string  experimental.value
1  CC(C)Nc1nc2cc(Cl)c(Cl)cc2n1[C@H]1O[C@@H](CO)[C@H](O)[C@@H]1O               18 µM

----------
Assay explanation: clinical
Conditions used: human, in vivo, po, 800 mg, Cmax, observed Mean
Quantity measured: Cmax (ng/mL)

> print(dat)
                              smiles.string  quantity.measured  experimental.value
1  CC(C)Nc1nc2cc(Cl)c(Cl)cc2n1[C@H]1O[C@@H](CO)[C@H](O)[C@@H]1O               Cmax               26400

----------
Study system: CYP3A (Homo sapiens, UniProt P08684)
Sequence (P08684 2-503): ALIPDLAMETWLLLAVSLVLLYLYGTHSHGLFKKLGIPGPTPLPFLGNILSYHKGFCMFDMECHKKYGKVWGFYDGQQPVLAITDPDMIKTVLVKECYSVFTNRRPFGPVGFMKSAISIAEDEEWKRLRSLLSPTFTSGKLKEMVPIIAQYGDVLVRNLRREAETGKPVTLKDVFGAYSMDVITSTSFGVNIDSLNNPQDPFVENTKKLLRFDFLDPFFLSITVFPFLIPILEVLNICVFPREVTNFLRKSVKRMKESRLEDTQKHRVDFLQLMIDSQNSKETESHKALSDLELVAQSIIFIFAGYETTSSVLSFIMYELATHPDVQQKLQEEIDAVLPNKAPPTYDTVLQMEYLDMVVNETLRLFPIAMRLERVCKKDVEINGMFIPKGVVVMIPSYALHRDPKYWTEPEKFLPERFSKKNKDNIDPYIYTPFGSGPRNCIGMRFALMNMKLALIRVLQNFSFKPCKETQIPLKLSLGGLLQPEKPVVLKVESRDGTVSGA
Assay explanation: Time-dependent inhibition of CYP3A in HLM (IC50 shift and enzyme inactivation kinetics)
Format: in vitro ADME
Set-up: from tissue; host or cells: human liver microsomes
Conditions used: human liver microsomes, probe midazolam
Quantity measured: KI (inactivation) (µM)

> print(dat)
                              smiles.string  experimental.value
1  CC(C)Nc1nc2cc(Cl)c(Cl)cc2n1[C@H]1O[C@@H](CO)[C@H](O)[C@@H]1O                41.2

----------
Test system: CYP3A4 mRNA
Assay explanation: CYP induction (mRNA, qPCR) in fresh human hepatocytes
Assay type: in vitro ADME
Conditions used: human
Quantity measured: EC50 at 72 h

> print(dat)
                                   molecule  quantity.measured  experimental.value
1  CC(C)Nc1nc2cc(Cl)c(Cl)cc2n1[C@H]1O[C@@H](CO)[C@H](O)[C@@H]1O [maribavir]       EC50 at 72 h              > 5 µM

----------
Assay explanation: clinical
Conditions used: human, in vivo, 400 mg, AUC(0-12 h), observed
Quantity measured: AUC(0-t) (ng·h/mL)

> print(dat)
                              smiles.string  result.unit  experimental.value
1  CC(C)Nc1nc2cc(Cl)c(Cl)cc2n1[C@H]1O[C@@H](CO)[C@H](O)[C@@H]1O      ng·h/mL               86600

----------
Assay explanation: clinical
Conditions used: human, in vivo, po, 800 mg, AUC(0-∞), observed Mean
Quantity measured: AUC(0-inf) (µg·h/mL)

> print(dat)
                              smiles.string  experimental.value
1  CC(C)Nc1nc2cc(Cl)c(Cl)cc2n1[C@H]1O[C@@H](CO)[C@H](O)[C@@H]1O                 183

----------
Study system: CYP3A (Homo sapiens, UniProt P08684)
Assay explanation: Time-dependent inhibition of CYP3A in HLM (IC50 shift and enzyme inactivation kinetics)
Assay type: in vitro ADME
Parameters: from tissue; host or cells: human liver microsomes
Conditions used: human liver microsomes, probe testosterone, testosterone as substrate, read-out: kinact (maximum enzyme inactivation rate constant), TDI of CYP3A (converted)
Quantity measured: kinact (s⁻¹)

> print(dat)
                              smiles.string  quantity.measured  experimental.value
1  CC(C)Nc1nc2cc(Cl)c(Cl)cc2n1[C@H]1O[C@@H](CO)[C@H](O)[C@@H]1O             kinact            0.000595

----------
Assay explanation: clinical
Conditions used: human, in vivo, 400 mg, AUC(0-12 h), observed Mean
Quantity measured: AUC(0-t) (ng·h/mL)

> print(dat)
                              smiles.string  result.unit  experimental.value
1  CC(C)Nc1nc2cc(Cl)c(Cl)cc2n1[C@H]1O[C@@H](CO)[C@H](O)[C@@H]1O      ng·h/mL               89900

----------
Assay explanation: Observed clinical interaction of maribavir with ketoconazole in healthy subjects
Assay type: in vivo, human
Conditions used: human, in vivo, 400 mg, AUC(0-∞), observed Mean
Quantity measured: AUC(0-inf) (µg·h/mL)

> print(dat)
                                   compound  result.unit  experimental.value
1  CC(C)Nc1nc2cc(Cl)c(Cl)cc2n1[C@H]1O[C@@H](CO)[C@H](O)[C@@H]1O [maribavir]      µg·h/mL                 194

----------
Assay explanation: clinical
Conditions used: human, in vivo, po, 1600 mg, Cmax, observed Mean
Quantity measured: Cmax (ng/mL)

> print(dat)
                              smiles.string  experimental.value
1  CC(C)Nc1nc2cc(Cl)c(Cl)cc2n1[C@H]1O[C@@H](CO)[C@H](O)[C@@H]1O               48800

----------
Assay explanation: clinical
Conditions used: human, in vivo, po, 1600 mg, AUC(0-∞), observed Mean
Quantity measured: AUC(0-inf) (µg·h/mL)

> print(dat)
                              smiles.string  experimental.value
1  CC(C)Nc1nc2cc(Cl)c(Cl)cc2n1[C@H]1O[C@@H](CO)[C@H](O)[C@@H]1O                 437

----------
Study system: CYP1A2 (Homo sapiens)
Sequence (P05177 whole entry): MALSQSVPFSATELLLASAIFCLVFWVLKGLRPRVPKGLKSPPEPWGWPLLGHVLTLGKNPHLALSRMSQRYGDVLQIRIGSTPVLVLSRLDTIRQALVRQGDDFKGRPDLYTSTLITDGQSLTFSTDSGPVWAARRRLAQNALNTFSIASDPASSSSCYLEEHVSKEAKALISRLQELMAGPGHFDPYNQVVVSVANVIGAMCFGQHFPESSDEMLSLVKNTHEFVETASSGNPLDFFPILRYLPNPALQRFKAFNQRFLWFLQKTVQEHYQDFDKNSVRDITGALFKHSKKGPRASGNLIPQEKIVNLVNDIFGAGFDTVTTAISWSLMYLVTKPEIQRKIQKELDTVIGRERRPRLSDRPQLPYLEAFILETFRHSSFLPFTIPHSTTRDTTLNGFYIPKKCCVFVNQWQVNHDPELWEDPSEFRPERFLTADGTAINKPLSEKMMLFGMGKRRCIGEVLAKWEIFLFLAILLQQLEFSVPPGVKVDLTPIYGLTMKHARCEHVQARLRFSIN
Assay explanation: Reversible CYP inhibition in human liver microsomes (HLM)
Assay type: in vitro ADME
Set-up: from tissue; host or cells: human liver microsomes
pIC50: −log10 of the molar value.
Quantity measured: pIC50

> print(dat)
                                   compound  quantity.measured  experimental.value
1  CC(C)Nc1nc2cc(Cl)c(Cl)cc2n1[C@H]1O[C@@H](CO)[C@H](O)[C@@H]1O [maribavir]              pIC50                4.40

----------
Assay explanation: clinical
Conditions used: human, in vivo, 400 mg, Cmax, observed Mean
Quantity measured: Cmax (ng/mL)

> print(dat)
                              smiles.string  experimental.value
1  CC(C)Nc1nc2cc(Cl)c(Cl)cc2n1[C@H]1O[C@@H](CO)[C@H](O)[C@@H]1O               16900

----------
Study system: P-gp (Homo sapiens)
Construct: P-gp efflux of digoxin (as determined by the corrected efflux ratio) in cultured Caco-2 cells; endogenous in cells
Sequence (P08183 whole entry): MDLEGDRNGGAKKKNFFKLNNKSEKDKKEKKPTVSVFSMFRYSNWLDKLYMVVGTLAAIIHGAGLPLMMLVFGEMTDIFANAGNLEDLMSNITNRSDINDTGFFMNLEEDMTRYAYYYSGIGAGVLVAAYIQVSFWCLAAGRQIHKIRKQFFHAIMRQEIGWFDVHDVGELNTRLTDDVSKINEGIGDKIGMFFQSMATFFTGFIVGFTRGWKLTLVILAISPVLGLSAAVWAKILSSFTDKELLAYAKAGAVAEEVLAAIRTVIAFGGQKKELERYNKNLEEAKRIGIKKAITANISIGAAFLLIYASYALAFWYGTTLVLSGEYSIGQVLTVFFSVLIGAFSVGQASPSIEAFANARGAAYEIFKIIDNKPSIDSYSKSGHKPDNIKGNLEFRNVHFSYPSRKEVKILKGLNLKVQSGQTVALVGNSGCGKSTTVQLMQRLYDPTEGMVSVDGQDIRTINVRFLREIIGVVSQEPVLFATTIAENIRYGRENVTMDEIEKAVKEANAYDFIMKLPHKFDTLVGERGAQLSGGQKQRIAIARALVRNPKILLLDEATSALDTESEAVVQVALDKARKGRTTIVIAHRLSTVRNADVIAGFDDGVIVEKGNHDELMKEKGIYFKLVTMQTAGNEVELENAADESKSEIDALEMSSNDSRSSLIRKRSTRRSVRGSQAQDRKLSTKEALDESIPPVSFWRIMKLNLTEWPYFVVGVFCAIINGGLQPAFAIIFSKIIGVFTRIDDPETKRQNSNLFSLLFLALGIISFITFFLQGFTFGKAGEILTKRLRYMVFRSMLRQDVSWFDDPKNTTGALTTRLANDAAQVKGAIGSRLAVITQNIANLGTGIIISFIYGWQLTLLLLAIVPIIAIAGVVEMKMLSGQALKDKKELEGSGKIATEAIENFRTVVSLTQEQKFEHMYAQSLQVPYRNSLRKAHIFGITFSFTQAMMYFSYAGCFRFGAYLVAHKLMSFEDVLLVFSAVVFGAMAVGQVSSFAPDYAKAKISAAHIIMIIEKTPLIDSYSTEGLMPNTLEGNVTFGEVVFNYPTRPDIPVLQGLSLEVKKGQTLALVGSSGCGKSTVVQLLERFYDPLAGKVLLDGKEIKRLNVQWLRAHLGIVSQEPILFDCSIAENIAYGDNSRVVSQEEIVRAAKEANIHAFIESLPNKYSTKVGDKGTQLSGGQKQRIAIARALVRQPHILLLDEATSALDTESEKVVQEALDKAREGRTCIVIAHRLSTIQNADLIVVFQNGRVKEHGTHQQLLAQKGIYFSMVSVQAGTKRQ
Assay explanation: Inhibition of P-gp efflux of digoxin in cultured Caco-2 cells
Quantity measured: IC50 (µM)

> print(dat)
                              smiles.string  result.unit  experimental.value
1  CC(C)Nc1nc2cc(Cl)c(Cl)cc2n1[C@H]1O[C@@H](CO)[C@H](O)[C@@H]1O           µM                33.8

----------
Study system: CYP2C19 (Homo sapiens)
Sequence (P33261 whole entry): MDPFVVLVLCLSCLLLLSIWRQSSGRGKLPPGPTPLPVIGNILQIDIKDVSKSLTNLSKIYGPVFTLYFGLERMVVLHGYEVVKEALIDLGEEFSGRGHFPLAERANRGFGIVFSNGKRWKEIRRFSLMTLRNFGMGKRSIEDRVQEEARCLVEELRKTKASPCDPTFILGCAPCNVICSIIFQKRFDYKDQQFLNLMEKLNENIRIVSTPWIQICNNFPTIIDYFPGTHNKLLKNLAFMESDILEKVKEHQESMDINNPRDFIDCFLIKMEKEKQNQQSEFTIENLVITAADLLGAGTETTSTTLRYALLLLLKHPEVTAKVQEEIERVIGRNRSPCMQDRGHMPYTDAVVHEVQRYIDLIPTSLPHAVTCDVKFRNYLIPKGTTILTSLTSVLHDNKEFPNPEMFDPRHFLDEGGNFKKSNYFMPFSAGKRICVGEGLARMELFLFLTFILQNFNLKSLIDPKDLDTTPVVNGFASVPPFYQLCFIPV
Assay explanation: Reversible CYP inhibition in human liver microsomes (HLM)
Format: in vitro ADME
Set-up: from tissue; host or cells: human liver microsomes
pIC50: −log10 of the molar value.
Quantity measured: pIC50

> print(dat)
                                   compound  experimental.value
1  CC(C)Nc1nc2cc(Cl)c(Cl)cc2n1[C@H]1O[C@@H](CO)[C@H](O)[C@@H]1O [maribavir]                4.46

----------
Study system: CYP3A (Homo sapiens, UniProt P08684)
Assay explanation: Time-dependent inhibition of CYP3A in HLM (IC50 shift and enzyme inactivation kinetics)
Format: in vitro ADME
Parameters: from tissue; host or cells: human liver microsomes
Conditions used: human liver microsomes, probe testosterone
Quantity measured: KI (inactivation)

> print(dat)
                                   molecule  experimental.value
1  CC(C)Nc1nc2cc(Cl)c(Cl)cc2n1[C@H]1O[C@@H](CO)[C@H](O)[C@@H]1O [maribavir]              167 µM

----------
Assay explanation: Observed clinical interaction of maribavir with ketoconazole in healthy subjects
Format: in vivo, human
Conditions used: human, in vivo, 400 mg, AUC(0-∞), observed Geometric mean
Quantity measured: AUC(0-inf)

> print(dat)
                              smiles.string  experimental.value
1  CC(C)Nc1nc2cc(Cl)c(Cl)cc2n1[C@H]1O[C@@H](CO)[C@H](O)[C@@H]1O         183 µg·h/mL

----------
Assay explanation: clinical
Conditions used: human, in vivo
Quantity measured: half-life

> print(dat)
                              smiles.string  quantity.measured  experimental.value
1  CC(C)Nc1nc2cc(Cl)c(Cl)cc2n1[C@H]1O[C@@H](CO)[C@H](O)[C@@H]1O          half-life      300 to 420 min
